Could you please report measured IC50 for the items listed next?
- TESTED TARGET: UniProtKB P06401
- ASSAY DETAILS: Antagonist activity at progesterone receptor assessed as progesterone-induced alkaline phosphatase activity in human T47D cells
- Assay type: functional, cell-based
Write the value in nM as a bare number.

For CN1C(=O)COC(c2ccccc2)(c2ccccc2)c2cc(-c3ccc(C#N)n3C)ccc21 the compound record lists IC50 as 500

For Cn1c(C#N)ccc1-c1ccc2c(c1)C(c1ccco1)(c1ccco1)OCC(=O)N2 the compound record lists IC50 as 6.6

For Cn1c(C#N)ccc1-c1ccc2c(c1)C(c1cccc(Cl)c1)(c1cccc(Cl)c1)OCC(=O)N2 the compound record lists IC50 as 175

For CCC1(c2cccs2)OCC(=O)N(C)c2ccc(-c3ccc(C#N)n3C)cc21 (stereo not drawn) the compound record lists IC50 as 120

For Cn1c(C#N)ccc1-c1ccc2c(c1)C(c1ccc(Cl)s1)(c1ccc(Cl)s1)OCC(=O)N2 the compound record lists IC50 as 197

For CCCC1(c2cccs2)OCC(=O)Nc2ccc(-c3ccc(C#N)n3C)cc21 (stereo not drawn) the compound record lists IC50 as 56.6

For CC(C)C1(c2cccs2)OCC(=O)Nc2ccc(-c3ccc(C#N)n3C)cc21 (stereo not drawn) the compound record lists IC50 as 36.5

For Cn1c(C#N)ccc1-c1ccc2c(c1)C(c1ccccc1)(c1ccccc1)OCC(=O)N2 the compound record lists IC50 as 14.3

* * *

Could you please report measured IC50 for the items listed next?
- TESTED TARGET: Progesterone receptor (Homo sapiens)
- Sequence (P06401 whole entry): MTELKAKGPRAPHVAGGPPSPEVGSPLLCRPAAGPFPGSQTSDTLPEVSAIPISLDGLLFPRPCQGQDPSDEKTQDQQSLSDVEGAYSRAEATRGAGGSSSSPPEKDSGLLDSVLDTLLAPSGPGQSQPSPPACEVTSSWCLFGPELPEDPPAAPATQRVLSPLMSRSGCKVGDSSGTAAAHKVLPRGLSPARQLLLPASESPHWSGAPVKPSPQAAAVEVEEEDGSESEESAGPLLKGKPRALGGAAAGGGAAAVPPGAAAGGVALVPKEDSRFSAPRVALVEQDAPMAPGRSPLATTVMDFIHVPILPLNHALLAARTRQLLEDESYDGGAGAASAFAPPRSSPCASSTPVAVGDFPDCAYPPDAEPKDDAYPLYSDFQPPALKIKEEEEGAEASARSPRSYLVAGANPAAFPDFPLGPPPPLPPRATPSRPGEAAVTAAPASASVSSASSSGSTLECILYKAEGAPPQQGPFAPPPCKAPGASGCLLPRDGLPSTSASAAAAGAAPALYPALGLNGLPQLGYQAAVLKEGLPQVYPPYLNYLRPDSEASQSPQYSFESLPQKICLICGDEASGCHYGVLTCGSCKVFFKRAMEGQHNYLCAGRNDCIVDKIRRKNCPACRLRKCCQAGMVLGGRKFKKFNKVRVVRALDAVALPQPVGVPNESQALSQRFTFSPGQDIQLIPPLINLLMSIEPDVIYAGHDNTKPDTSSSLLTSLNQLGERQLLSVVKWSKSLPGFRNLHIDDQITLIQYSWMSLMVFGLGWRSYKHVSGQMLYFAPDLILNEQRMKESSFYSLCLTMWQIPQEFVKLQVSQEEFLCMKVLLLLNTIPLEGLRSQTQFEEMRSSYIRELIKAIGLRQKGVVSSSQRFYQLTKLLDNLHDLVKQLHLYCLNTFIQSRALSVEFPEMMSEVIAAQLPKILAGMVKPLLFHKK
- ASSAY DETAILS: Displacement of [3H]progesterone from progesterone receptor in human T47D cells
- Type: cell-based

For Cn1c(C#N)ccc1-c1ccc2c(c1)C(c1cccs1)(c1cccs1)OCC(=O)N2 the compound record lists IC50 as 0.06 µM

For Cn1c(C#N)ccc1-c1ccc2c(c1)C(c1ccco1)(c1ccco1)OCC(=O)N2 the compound record lists IC50 as 0.0284 µM

For Cn1c(C#N)ccc1-c1ccc2c(c1)C(C)(c1cccs1)OCC(=O)N2 (stereo not drawn) the compound record lists IC50 as 0.0024 µM

For Cn1c(C#N)ccc1-c1ccc2c(c1)C(c1ccccc1)(c1ccccc1)OCC(=O)N2 the compound record lists IC50 as 0.036 µM

For CC1(C)OCC(=O)Nc2ccc(-c3ccc(C#N)[nH]3)cc21 the compound record lists IC50 as 0.0107 µM

For CCC1(c2cccs2)OCC(=O)Nc2ccc(-c3ccc(C#N)n3C)cc21 (stereo not drawn) the compound record lists IC50 as 0.075 µM

For Cn1c(C#N)ccc1-c1ccc2c(c1)C(C)(c1ccsc1)OCC(=O)N2 (stereo not drawn) the compound record lists IC50 as 0.0034 µM

For CC1(c2cccs2)OCC(=O)Nc2ccc(-c3ccc(C#N)[nH]3)cc21 (stereo not drawn) the compound record lists IC50 as 0.0038 µM

* * *

- TESTED TARGET: Androgen receptor (Homo sapiens)
- Sequence (P10275 whole entry): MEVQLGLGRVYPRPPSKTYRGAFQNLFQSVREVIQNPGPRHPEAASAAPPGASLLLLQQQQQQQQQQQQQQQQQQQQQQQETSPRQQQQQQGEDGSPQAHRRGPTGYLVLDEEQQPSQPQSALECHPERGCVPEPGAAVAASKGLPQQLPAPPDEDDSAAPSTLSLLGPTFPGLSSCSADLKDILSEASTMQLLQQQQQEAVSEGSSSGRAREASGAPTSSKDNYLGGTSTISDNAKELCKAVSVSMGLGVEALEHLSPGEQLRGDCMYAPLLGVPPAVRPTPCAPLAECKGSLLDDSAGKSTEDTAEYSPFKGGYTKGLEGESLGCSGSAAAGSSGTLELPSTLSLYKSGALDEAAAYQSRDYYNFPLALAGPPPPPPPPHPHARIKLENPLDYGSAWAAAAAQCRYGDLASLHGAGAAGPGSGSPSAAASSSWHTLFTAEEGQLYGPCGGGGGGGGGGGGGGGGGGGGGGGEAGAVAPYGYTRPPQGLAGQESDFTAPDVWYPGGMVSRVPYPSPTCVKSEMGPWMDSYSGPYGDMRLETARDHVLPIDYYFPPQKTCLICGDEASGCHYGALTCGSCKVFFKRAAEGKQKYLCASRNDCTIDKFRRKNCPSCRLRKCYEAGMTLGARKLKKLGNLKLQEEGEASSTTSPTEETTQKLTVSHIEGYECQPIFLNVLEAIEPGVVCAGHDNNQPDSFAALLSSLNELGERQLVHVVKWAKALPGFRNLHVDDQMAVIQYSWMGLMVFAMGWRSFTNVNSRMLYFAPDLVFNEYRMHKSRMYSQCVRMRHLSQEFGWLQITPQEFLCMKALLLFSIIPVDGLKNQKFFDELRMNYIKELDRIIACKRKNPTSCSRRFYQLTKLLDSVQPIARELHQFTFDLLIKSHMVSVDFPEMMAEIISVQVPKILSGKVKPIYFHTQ
QUANTITY NAME: IC50
Mention the unit after the number when you answer.

For Cn1c(C#N)ccc1-c1ccc2c(c1)C(c1ccco1)(c1ccco1)OCC(=O)N2 the molecule record lists IC50 as 740 nM

For Cn1c(C#N)ccc1-c1ccc2c(c1)C(C)(c1ccsc1)OCC(=O)N2 (centres undefined) the molecule record lists IC50 as 325 nM

For Cn1c(C#N)ccc1-c1ccc2c(c1)C(C)(c1ccco1)OCC(=O)N2 (centres undefined) the molecule record lists IC50 as 215 nM

For Cn1c(C#N)ccc1-c1ccc2c(c1)C(c1cccs1)(c1cccs1)OCC(=O)N2 the molecule record lists IC50 as 775 nM

* * *

- TESTED TARGET: Glucocorticoid receptor (Homo sapiens)
- Sequence (P04150 whole entry): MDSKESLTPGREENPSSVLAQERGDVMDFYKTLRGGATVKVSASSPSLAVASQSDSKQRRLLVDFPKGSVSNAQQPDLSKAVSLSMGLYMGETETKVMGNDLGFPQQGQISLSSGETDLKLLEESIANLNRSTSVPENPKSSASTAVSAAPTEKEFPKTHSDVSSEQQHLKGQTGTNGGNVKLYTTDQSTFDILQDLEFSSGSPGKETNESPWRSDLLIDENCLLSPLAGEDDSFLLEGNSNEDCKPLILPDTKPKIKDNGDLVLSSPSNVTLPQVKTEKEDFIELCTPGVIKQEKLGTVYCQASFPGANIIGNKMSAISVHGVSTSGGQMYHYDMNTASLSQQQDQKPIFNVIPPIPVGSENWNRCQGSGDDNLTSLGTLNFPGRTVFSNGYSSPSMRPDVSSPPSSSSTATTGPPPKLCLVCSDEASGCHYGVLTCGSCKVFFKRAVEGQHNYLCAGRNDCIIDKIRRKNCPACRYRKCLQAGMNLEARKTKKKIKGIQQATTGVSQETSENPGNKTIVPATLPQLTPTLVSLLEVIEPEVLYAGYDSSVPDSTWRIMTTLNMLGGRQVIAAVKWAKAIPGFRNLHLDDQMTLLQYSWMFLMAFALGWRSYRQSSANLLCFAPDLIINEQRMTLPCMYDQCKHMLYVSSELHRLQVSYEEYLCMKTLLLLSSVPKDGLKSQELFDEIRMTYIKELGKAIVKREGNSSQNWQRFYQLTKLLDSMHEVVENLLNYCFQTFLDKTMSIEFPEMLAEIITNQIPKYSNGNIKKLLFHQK
QUANTITY NAME: pIC50
# pIC50: negative log10 of molar concentration; output just the value

For Cn1c(C#N)ccc1-c1ccc2c(c1)C(C)(c1ccsc1)OCC(=O)N2 (centres undefined) the compound record lists pIC50 as 6.90

For Cn1c(C#N)ccc1-c1ccc2c(c1)C(C)(c1ccco1)OCC(=O)N2 (centres undefined) the compound record lists pIC50 as 6.92
